Reported ka values are given for each entry in this list.
- System: cynomolgus ARG2
- Sequence (as listed by the source): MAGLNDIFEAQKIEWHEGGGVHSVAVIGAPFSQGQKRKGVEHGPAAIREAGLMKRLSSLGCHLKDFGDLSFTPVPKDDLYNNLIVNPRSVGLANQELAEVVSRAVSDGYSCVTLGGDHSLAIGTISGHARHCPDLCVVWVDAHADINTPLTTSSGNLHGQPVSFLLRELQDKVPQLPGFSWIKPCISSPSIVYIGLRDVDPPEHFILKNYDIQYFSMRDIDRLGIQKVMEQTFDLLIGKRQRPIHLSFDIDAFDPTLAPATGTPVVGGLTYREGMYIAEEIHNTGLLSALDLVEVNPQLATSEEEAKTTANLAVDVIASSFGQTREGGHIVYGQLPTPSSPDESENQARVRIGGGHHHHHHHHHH
- protocol details: Bio-Layer Interferometry (OctetRED) binding kinetics, cynomolgus ARG2
- condition notes: Fab as analyte; cyno ARG2 ligand; affinity-matured antibodies
# unit: M⁻¹ s⁻¹ | format: bare number

molecule	ka / M⁻¹ s⁻¹
C0021133: anti-ARG2 antibody, VH SEQ ID NO: 192, VL SEQ ID NO: 197 (antibody, listed as Homo sapiens, V domains shown, C0021133) VH: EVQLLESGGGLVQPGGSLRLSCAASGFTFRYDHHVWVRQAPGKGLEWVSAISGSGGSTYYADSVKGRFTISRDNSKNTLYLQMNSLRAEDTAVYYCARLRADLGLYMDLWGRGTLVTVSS VL: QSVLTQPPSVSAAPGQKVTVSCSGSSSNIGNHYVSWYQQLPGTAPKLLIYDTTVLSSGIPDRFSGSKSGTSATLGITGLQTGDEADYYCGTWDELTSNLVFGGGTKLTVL	328000

Reported ka for C0021128: anti-ARG2 antibody, VH SEQ ID NO: 162, VL SEQ ID NO: 167 (antibody, listed as Homo sapiens, V domains shown, C0021128) VH: EVQLLESGGGLVQPGGSLRLSCAASGFTFQYEVAAWVRQAPGKGLEWVSAISGPIPKGYYADSVKGRFTISRDNSKNTLYLQMNSLRAEDTAVYYCARLRADLGLYMDLWGRGTLVTVSS VL: QSVLTQPPSVSAAPGQKVTISCSGSSSNIGNHYVSWYQQLPGTAPKLLIYDNAIESSGIPDRFSGSKSGTSATLGITGLQTGDGADYYCGTWDSNLSALVFGGGTKLTVL : what is it?
437000
